These entries and their values trace back to ChEMBL document CHEMBL2016448.

test: Lipophilicity, log D of the compound at pH 7.4; assay type: physicochemical; conditions: buffer, read-out: logD
# logD listing for each entry below

CC(C)N(Cc1ccccc1)C(=O)CN1C(=O)[C@@H](Cc2n[nH]c3ccccc23)c2nnc(-c3ccccc3)n2-c2ccccc21 ... 4.7
COCCC1CCCCN1C(=O)CN1C(=O)[C@@H](Cc2n[nH]c3ccccc23)c2nnc(-c3ccccc3)n2-c2ccccc21 (single isomer, unassigned) ... 3.1
Cc1cc(C)cc(C[C@H]2CCCCN2C(=O)CN2C(=O)[C@@H](Cc3n[nH]c4ccccc34)c3nnc(-c4ccccc4)n3-c3ccccc32)c1 ... 5.6
O=C1[C@@H](Cc2n[nH]c3ccccc23)c2nnc(-c3ccccc3)n2-c2ccccc2N1CC(=O)N1CCCCC1Cc1ccccc1 (stereo not given in full) ... 4.6

// switching to the query compound
Param item = Cc1cccc(CC2CCCCN2C(=O)CN2C(=O)[C@@H](Cc3n[nH]c4ccccc34)c3nnc(-c4ccccc4)n3-c3ccccc32)c1 (stereo not given in full) ; retrieve measured logD. 5.1

---

test: Bioavailability in Sprague-Dawley rat portal system; format: ADME, organism-based
readout.type: bioavailability (%)
Report as a plain number; the unit % is understood.

Param item = Cc1cc(C)cc(C[C@H]2CCCCN2C(=O)CN2C(=O)[C@@H](Cc3n[nH]c4ccccc34)c3nnc(-c4ccccc4)n3-c3ccccc32)c1 ; retrieve measured bioavailability. 0.56

---

target: Cholecystokinin receptor type A (Homo sapiens, UniProt P32238); test: Agonist activity at human CCK1 receptor assessed as increase in CCK8-induced calcium release incubated in dark for 30 mins followed by light incubation for 30 mins measured by FLIPR assay
Sequence (P32238 whole entry): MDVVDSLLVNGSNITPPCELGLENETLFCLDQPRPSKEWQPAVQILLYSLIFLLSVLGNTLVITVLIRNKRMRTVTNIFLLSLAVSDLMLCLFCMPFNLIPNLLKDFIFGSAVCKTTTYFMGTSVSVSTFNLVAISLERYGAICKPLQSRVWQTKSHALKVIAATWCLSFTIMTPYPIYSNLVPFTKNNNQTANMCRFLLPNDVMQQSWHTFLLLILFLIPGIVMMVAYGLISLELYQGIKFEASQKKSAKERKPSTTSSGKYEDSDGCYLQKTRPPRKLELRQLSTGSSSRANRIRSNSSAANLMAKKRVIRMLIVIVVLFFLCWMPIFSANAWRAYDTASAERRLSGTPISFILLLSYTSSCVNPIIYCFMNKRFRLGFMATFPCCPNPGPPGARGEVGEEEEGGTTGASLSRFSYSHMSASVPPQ
# EC50 listing for each entry below
Report as a plain number; the unit nM is understood.

See these solved cases before continuing.
O=C1[C@@H](Cc2n[nH]c3ccccc23)c2nnc(-c3ccccc3)n2-c2ccccc2N1CC(=O)N1CCCCC1Cc1ccccc1 (stereo not given in full) ... 12.9
O=C1C(Cc2c[nH]c3ccccc23)c2nnc(-c3ccccc3)n2-c2ccccc2N1CC(=O)N1CCCCC1c1ccccc1 (mixture of isomers) ... 1670
COCCC1CCCCN1C(=O)CN1C(=O)C(Cc2c[nH]c3ccccc23)c2nnc(-c3ccccc3)n2-c2ccccc21 (mixture of isomers) ... 52.5
O=C1C(Cc2c[nH]c3ccccc23)c2nnc(-c3ccccc3)n2-c2ccccc2N1CC(=O)N1CCCCC1CC1CCCCC1 (mixture of isomers) ... 256

Param item = COCCC1CCCCN1C(=O)CN1C(=O)[C@@H](Cc2n[nH]c3ccccc23)c2nnc(-c3ccccc3)n2-c2ccccc21 (single isomer, unassigned) ; retrieve measured EC50. 2.7

---

test system: Liver; assay: Clearance in rat liver; type: ADME, organism-based; conditions: in vivo
readout.type: CLH

Param item = CC(C)N(Cc1ccccc1)C(=O)CN1C(=O)[C@@H](Cc2c[nH]c3ccccc23)c2nnc(-c3ccccc3)n2-c2ccccc21 ; retrieve measured CLH. 47 mL/min/kg

---

# clearance listing for each entry below
test: Intrinsic clearance in human microsomes; type: ADME, Microsome
Report as a plain number; the unit µL/min/mg is understood.

O=C1C(Cc2c[nH]c3ccccc23)c2nnc(-c3ccccc3)n2-c2ccccc2N1CC(=O)N1CCCC1Cc1ccccn1 (mixture of isomers) ... 212
O=C1C(Cc2c[nH]c3ccccc23)c2nnc(-c3ccccc3)n2-c2ccccc2N1CC(=O)N1CCCCC1Cc1ccncc1 (mixture of isomers) ... 111
O=C1C(Cc2c[nH]c3ccccc23)c2nnc(-c3ccccc3)n2-c2ccccc2N1CC(=O)N1CCCCC1Cc1ccccn1 (mixture of isomers) ... 114
CC(C)N(Cc1ccccc1)C(=O)CN1C(=O)[C@@H](Cc2c[nH]c3ccccc23)c2nnc(-c3ccccc3)n2-c2ccccc21 ... 199
O=C1C(Cc2c[nH]c3ccccc23)c2nnc(-c3ccccc3)n2-c2ccccc2N1CC(=O)N1CCCCC1CC1CCCCC1 (mixture of isomers) ... 76
O=C1C(Cc2c[nH]c3ccccc23)c2nnc(-c3ccccc3)n2-c2ccccc2N1CC(=O)N1CCCCC1Cc1ccccc1 (mixture of isomers) ... 146

Param item = CC(C)C1CCCCN1C(=O)CN1C(=O)C(Cc2c[nH]c3ccccc23)c2nnc(-c3ccccc3)n2-c2ccccc21 (mixture of isomers) ; retrieve measured clearance. 220

Another molecule: O=C(CN1C(=O)C(Cc2c[nH]c3ccccc23)c2nnc(-c3ccccc3)n2-c2ccccc21)N1CCC(Cc2ccccc2)C1 (mixture of isomers) 148
